Reference for the values: the supplement of paper PMC10681739

target or test system: RUNX1 (UniProt Q01196)
Sequence (Q01196 whole entry): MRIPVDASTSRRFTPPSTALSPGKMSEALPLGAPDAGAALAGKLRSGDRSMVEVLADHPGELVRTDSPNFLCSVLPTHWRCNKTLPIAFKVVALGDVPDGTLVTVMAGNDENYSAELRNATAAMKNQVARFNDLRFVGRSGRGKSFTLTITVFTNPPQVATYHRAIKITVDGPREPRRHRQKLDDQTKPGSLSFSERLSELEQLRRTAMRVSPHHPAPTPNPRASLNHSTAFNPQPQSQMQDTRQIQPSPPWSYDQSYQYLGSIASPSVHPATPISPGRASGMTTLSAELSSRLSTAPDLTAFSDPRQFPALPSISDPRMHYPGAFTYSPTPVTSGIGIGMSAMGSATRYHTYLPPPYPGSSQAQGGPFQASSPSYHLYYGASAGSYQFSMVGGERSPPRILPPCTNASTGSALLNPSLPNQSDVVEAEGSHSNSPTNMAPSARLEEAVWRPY
experiment summary: RUNX1 binding intensity (PBM fluorescence), RUNX1 alone (arbitrary fluorescence units); higher = stronger binding
recorded conditions: RUNX1 concentration 2 nM; ETS1 concentration 0 nM
Task for the reader: assign each of the following sequences its reported RUNX1 binding intensity.
Just the number, please.

Task item: Suppose we examine the sequence "AGCACTTCCGTTTGGGCAGGGCTGCGGGCCGGAGGG" ; what RUNX1 binding intensity value has been reported?
Reply: 746

Task item: State the recorded RUNX1 binding intensity for this entry: "GAAATGAAGGCCGGATGTCAGTAACCACAAACGAGC"
Reply: 1040

Task item: So what's the measured RUNX1 binding intensity for this one? "AGAGGCAGCTTCCGGAGACTGCTCTGTGGCCAGTTT"
Reply: 711

Task item: May I ask what RUNX1 binding intensity has been recorded for "CTGTCCGCTACATCCGGGACCTGCGGGACCGCCGAT" ?
Reply: 823

Task item: For "GTACGACAGCGGGTTCCGGTGACCACGAAGGCGGCA" , what is its reported RUNX1 binding intensity?
Reply: 938

Task item: # RUNX1 binding intensity lookup, item "CGGGCGAGCGCAGGATGCGGTTGTCGAACGCGCGGC"
Reply: 762

----------
target or test system: ETS1 (UniProt P14921)
Sequence: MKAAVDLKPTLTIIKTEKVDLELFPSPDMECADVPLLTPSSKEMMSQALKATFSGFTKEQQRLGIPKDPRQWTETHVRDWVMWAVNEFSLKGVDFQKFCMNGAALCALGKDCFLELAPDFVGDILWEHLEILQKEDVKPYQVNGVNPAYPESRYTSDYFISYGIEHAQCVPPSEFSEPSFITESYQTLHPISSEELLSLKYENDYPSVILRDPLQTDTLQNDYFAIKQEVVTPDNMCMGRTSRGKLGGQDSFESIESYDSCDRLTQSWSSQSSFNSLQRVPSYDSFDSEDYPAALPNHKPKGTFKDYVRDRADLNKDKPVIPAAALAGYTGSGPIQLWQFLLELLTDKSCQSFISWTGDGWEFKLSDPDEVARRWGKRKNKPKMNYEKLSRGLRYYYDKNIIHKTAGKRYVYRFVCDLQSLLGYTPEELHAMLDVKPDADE
experiment summary: ETS1 binding intensity (PBM fluorescence) in presence of RUNX1, normalised to ETS1-only experiment (arbitrary fluorescence units); higher = stronger binding
recorded conditions: ETS1 concentration 1 nM; RUNX1 concentration 25 nM
Hi there, I'd appreciate the recorded ETS1 binding intensity for every entry that follows.
Give the figure only, with no unit attached.

Task item: Form field: reported ETS1 binding intensity of "AACCTGCAGACTTCCTGCCATGTGACCACAGGGTCT"
Reply: 3140

Task item: Tell me the measured ETS1 binding intensity of "CTGGGCTCGCCAGGCGGAAGTGGTTGGAGACTGCGT" , please.
Reply: 9090

Task item: Using the record for "TATGTGTTTTAGGCAGGATGTGGGTTTTAGTCTTTC" , report its ETS1 binding intensity.
Reply: 36400

Task item: May I ask what ETS1 binding intensity has been recorded for "AAAGAGGAAATCACATACCCGAAAACCACATGCACA" ?
Reply: 1050

Task item: Give the measured ETS1 binding intensity of "GCCACCGTATTTCCGCGTTTTTCGCGGTAGGCGGGA" .
Reply: 576

Task item: Data request, read-out ETS1 binding intensity, for "GCAGTGCAGGAAGTGCTTTGTGTGGTACAATCCCAA"
Reply: 2110

Task item: Returns the measured ETS1 binding intensity for the input sequence. Input: "GGGGCCTCTGCTACTTCCTAGACCGCAAAATGGAGA"
Reply: 1570

Task item: # ETS1 binding intensity lookup, item "TAGCAGGAAGCCGATTCGCCCTATATGCAACCACTT"
Reply: 570

----------
target or test system: ETS1 (UniProt P14921)
Sequence: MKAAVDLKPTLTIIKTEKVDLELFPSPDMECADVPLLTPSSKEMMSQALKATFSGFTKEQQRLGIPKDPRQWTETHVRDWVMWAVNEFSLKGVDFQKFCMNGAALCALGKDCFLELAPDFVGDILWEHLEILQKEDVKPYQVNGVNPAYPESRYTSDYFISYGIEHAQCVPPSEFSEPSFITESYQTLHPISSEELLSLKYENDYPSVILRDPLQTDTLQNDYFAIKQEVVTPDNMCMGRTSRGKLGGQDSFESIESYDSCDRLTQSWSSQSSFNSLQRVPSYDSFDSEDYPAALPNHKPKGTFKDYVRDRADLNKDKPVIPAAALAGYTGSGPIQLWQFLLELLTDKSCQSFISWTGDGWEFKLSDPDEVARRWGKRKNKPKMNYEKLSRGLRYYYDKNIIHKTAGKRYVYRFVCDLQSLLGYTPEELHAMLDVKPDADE
experiment summary: ETS1 binding intensity (PBM fluorescence) in presence of RUNX1, normalised to ETS1-only experiment (arbitrary fluorescence units); higher = stronger binding
recorded conditions: ETS1 concentration 1 nM; RUNX1 concentration 25 nM
measurement label: ETS1 binding intensity
Please give the numeric answer without any surrounding text.

Task item: Fill blank: measured ETS1 binding intensity of the sequence "GCCACACCCCCTTCCTGTTGTGTGTGGGGATTCATG" is ____.
Reply: 696

Task item: Would you kindly share the measured ETS1 binding intensity for "ACTTACTTCCCGACGTCACAGCCTCCGACACCACAG" ?
Reply: 423

Task item: Recorded ETS1 binding intensity for "AGCCAGGAAATCCGCACCTACACAGCCCAACCACAG" , please?
Reply: 435

Task item: Look up ETS1 binding intensity for this sequence: "ATTCCTAGAGAGGAAATGCGGGCTCAGGGTGTCGGC"
Reply: 1560

Task item: Look at this sequence and give its reported ETS1 binding intensity. "TTTTCCGACGGAAGCCTTACTGCCGCAAACGTCACT"
Reply: 503

Task item: Can you look up the measured ETS1 binding intensity of "GAGGAGGAAAGCGGAAGCGCTGCCCGCAGTGGTAGG" for me?
Reply: 8570

Task item: Consider the sequence shown here: "TGAAGTTGGTGTTTTCCGGGGGCGGTTTTTCCATTG" What is its recorded ETS1 binding intensity?
Reply: 451

Task item: If you can, please state the reported ETS1 binding intensity value of "TTCTCATCCGGCCGGCTTGCTTTCCCCTGCGGTCGT" .
Reply: 641

Task item: Param item = "GGGGCTGGGAAAGGATGTGGTAAGGGCCAGTCAGTC" ; retrieve measured ETS1 binding intensity.
Reply: 3240

Task item: Which ETS1 binding intensity reading was recorded for the sequence "GGAGGAAGTGACACCCACCCACTGCCCCCGCAAGGT" ?
Reply: 987

Task item: Would you kindly share the measured ETS1 binding intensity for "TCTAGTTCTGGTTTCCGGACCGCATTCGGAACTAGA" ?
Reply: 1390

Task item: What measured ETS1 binding intensity goes with "CTGGGGAGGAAGCCTGAGGTGTGTGGTTTTGTTAAC" ?
Reply: 811

----------
target or test system: ETS1 (UniProt P14921)
Sequence: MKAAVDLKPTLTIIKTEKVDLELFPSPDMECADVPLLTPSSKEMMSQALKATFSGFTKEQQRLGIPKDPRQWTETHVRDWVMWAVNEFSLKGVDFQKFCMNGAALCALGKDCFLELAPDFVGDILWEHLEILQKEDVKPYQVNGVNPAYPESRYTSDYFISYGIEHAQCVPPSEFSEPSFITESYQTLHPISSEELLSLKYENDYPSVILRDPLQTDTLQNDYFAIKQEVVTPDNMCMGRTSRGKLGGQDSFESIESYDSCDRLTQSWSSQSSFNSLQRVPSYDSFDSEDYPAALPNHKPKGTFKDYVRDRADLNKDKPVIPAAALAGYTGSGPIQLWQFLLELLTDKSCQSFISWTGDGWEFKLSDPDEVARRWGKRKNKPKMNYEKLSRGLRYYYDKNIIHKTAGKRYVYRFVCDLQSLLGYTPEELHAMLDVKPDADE
experiment summary: ETS1 binding intensity (PBM fluorescence) in presence of RUNX1, normalised to ETS1-only experiment (arbitrary fluorescence units); higher = stronger binding
recorded conditions: ETS1 concentration 1 nM; RUNX1 concentration 25 nM
Categorized via ETS1 binding intensity: Low = under 700, Mid = from 700 up to 4000, High = 4000 and over

Task item: Hello team, could you let me know which band the following sequence falls into: "GGATGACATCCGGCACCAACTTAACCACTAATCTCA"
Reply: Mid

Task item: Looking at "TAGGCTGAAGACTTCCGCCCCGCAGAGGACTTGCCT" , which class would you pick?
Reply: Mid

Task item: Any idea which band "TATATGCACAGGAAGTCCCTTACAACCCACTCTGTT" is in?
Reply: Mid

Task item: Which bin, given its ETS1 binding intensity, does "CAGCCGACTTCCGGGGTGGGGCTTGCTGCCGCAGAG" occupy?
Reply: Mid

Task item: Returns: class label. Input: "AGCGGGAGGAAGTGCTGCAGTAGCCACAGCAGCCTG"
Reply: Mid

Task item: Category of "CCCAGCCGAGGGAGGAAGCCTGCGGTCACTGCCATC" , please.
Reply: Mid

Task item: Dear colleague, I would appreciate it if you could identify the bin for "TGCTTTTCAGGTGCAGGAAGTGGTTTGCCTTTGCCC" and reply at your convenience.
Reply: High

Task item: Categorize the following entry: "AGCCAACAGGAAGCTGCAGAGACTAAACCACAGCAA"
Reply: High

Task item: Classify this sequence: "CCCGCCACTTCCCTGCCTCTGCGGGAGCCCCCCAGC"
Reply: Low

Task item: Classify this sequence: "TACATCTTCAGAGGAAGTGGGTTTGTGTATCTTTGA"
Reply: Mid

Task item: Classify this sequence: "ACTACAACTTCCGACTTGCATCACTGCGGTGGCGCT"
Reply: Low

Task item: Hello team, could you let me know which band the following sequence falls into: "TGGGCCAGCACGTCCGGGTGGTCAGGACGCGCGCTT"
Reply: Low
